# experimental target: cynomolgus monkey CD117 ectodomain (cynomolgus monkey)
# experiment summary: BLI (Octet), biotinylated ectodomain on SA biosensor, 1:1 global fit, monomeric Fc
pKd: −log10 of the molar value.
Please use satisfied whenever pKd is not below 8, and not satisfied whenever it is.

Would you say P-0037 (Fc fusion, Any second Fc chain without VHH is not described in the text; also called monovalent form of P37; not shown: Fc fragment) QVQLVESGGGLVQAGDSLRLSCAVSGRTLSNYFMAWLRQAPGKEREFVAAIHWSLGSTYYQDPVKGRFTISRDKAKNTVYLQMNTLKPEDTATYICAAGQHLSGLGGSAWSIEGDYWGQGTQVTVSS shows pKd at minimum 8? not satisfied

Is the recorded value of pKd equal to or greater than 8 for this binder? P-0038 (Fc fusion, Any second Fc chain without VHH is not described in the text; also called monovalent form of P38; not shown: Fc fragment) EVQLVESGGGLVQAGGSLRLSCAASGRTSGSYVMGWFRQAPGKEREFVAAISWSAGMTYYADSVKGRFTISRDNAKNTVYLQMNSLKPEDTAVYYCAADQRGVPAYYSDYALYDYWGQGTQVTVSS not satisfied

# check: pKd of P-0010 (Fc fusion, Any second Fc chain without VHH is not described in the text; also called monovalent form of P10; not shown: Fc fragment) QVQLVESGGGLVQAGGSLRLSCVASGRTFSSYAMGWFRQGPGKEREFAAAILSNGLTTYYADSVKGRFTISRDNAKDTVYLQMNSLKPEDTANYYCAAAFTPEFRDGGIWDDASVDYWGQGTQVTVSS is greater than or equal to 8 not satisfied

Hello, I need to know if P-0031 (Fc fusion, Any second Fc chain without VHH is not described in the text; also called monovalent form of P31; not shown: Fc fragment) EVQLVESGGGLVRAGGSLRLSCAASGRTFTYDARAWFRQAPGKEREFVAAISWSGGSTYYPNSMKGRFTISRDNAKNTVYLQMNSLKPEDTAVYYCAADESFPAYYSDYALYRYWGQGTLVTVSS has measured pKd not below 8. Thanks! satisfied
